Test system: 699152-130-R-J1-PDC complex spheroid growth
Assay explanation: Anticancer human tumor 699152-130-R-J1-PDC patient-derived pancreatic carcinoma cell line growth inhibition [AhR]
Applied conditions: second compound 3.16 µM; first compound 1 µM; active compounds read low
Label key: 1 (yes) means viability, T/C under 60%; 0 (no) means viability, T/C of 60% or more.

{"columns": ["Molecule", "Label value"],
 "data": [
  ["Nc1ccccc1NC(=O)c1ccc(CNC(=O)OCc2cccnc2)cc1 + CC(CO)NC(=O)c1cc(-c2ccc(Cl)cc2)nn(-c2cnn(C)c2)c1=O", "0 (no)"],
  ["COc1cccc2c1C(=O)c1c(O)c3c(c(O)c1C2=O)CC(O)(C(=O)CO)CC3OC1CC(N)C(O)C(C)O1 (configuration not stated) + Cc1ccccc1N=Nc1ccc(NC(=O)c2ccnn2C)c(C)c1", "1 (yes)"],
  ["Nc1ccccc1NC(=O)c1ccc(CNC(=O)OCc2cccnc2)cc1 + Cc1ccccc1N=Nc1ccc(NC(=O)c2ccnn2C)c(C)c1", "0 (no)"],
  ["O=C(c1cc(Cc2n[nH]c(=O)c3ccccc23)ccc1F)N1CCN(C(=O)C2CC2)CC1 + CC(CO)NC(=O)c1cc(-c2ccc(Cl)cc2)nn(-c2cnn(C)c2)c1=O", "0 (no)"],
  ["O=C(c1cc(Cc2n[nH]c(=O)c3ccccc23)ccc1F)N1CCN(C(=O)C2CC2)CC1 + Cc1cncc(-c2nc(NCCc3c[nH]c4ccccc34)c3ncn(C(C)C)c3n2)c1", "0 (no)"],
  ["CC(C)c1c(-c2ccccc2)nc2c(C#N)c[nH]n2c1=O + Cc1ccccc1N=Nc1ccc(NC(=O)c2ccnn2C)c(C)c1", "0 (no)"],
  ["COc1ccc([C@@H](O)c2cc(-c3ncnc4cc(N5CCOCC5)ccc34)c(F)cc2Cl)nn1 + Cc1ccccc1N=Nc1ccc(NC(=O)c2ccnn2C)c(C)c1", "0 (no)"],
  ["NS(=O)(=O)OCC1CC(n2ccc3c(NC4CCc5ccccc54)ncnc32)CC1O (configuration not stated) + Cc1ccccc1N=Nc1ccc(NC(=O)c2ccnn2C)c(C)c1", "1 (yes)"],
  ["CC1COCCN1c1cc(-c2ccnn2C)c2ccnc(-c3ccn[nH]3)c2n1 (configuration not stated) + Cc1cncc(-c2nc(NCCc3c[nH]c4ccccc34)c3ncn(C(C)C)c3n2)c1", "1 (yes)"],
  ["COc1cc(Nc2ncc3c(n2)-c2ccc(Cl)cc2C(c2c(F)cccc2OC)=NC3)ccc1C(=O)O + Cc1cncc(-c2nc(NCCc3c[nH]c4ccccc34)c3ncn(C(C)C)c3n2)c1", "0 (no)"],
  ["COc1ccc([C@@H](O)c2cc(-c3ncnc4cc(N5CCOCC5)ccc34)c(F)cc2Cl)nn1 + CC(CO)NC(=O)c1cc(-c2ccc(Cl)cc2)nn(-c2cnn(C)c2)c1=O", "0 (no)"]
]}

* * *

In this section we review reported viability, T/C values for a set of molecules.
Test system: 699152-130-R-J1-PDC complex spheroid growth
Assay explanation: Anticancer human tumor 699152-130-R-J1-PDC cell line growth inhibition [AhR];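 further: compound exposure lasted 7 days after spheroids had grown for 3 days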
Applied conditions: second compound 3.16 µM; first compound 0.000949 µM; active compounds read low
Quantity name: viability, T/C

{"columns": ["Molecule", "Result"],
 "data": [
  ["CCc1c2c(nc3ccc(O)cc13)-c1cc3c(c(=O)n1C2)COC(=O)[C@]3(O)CC + Cc1ccccc1N=Nc1ccc(NC(=O)c2ccnn2C)c(C)c1", "95.7%"],
  ["Nc1ncn(C2CC(O)C(CO)S2)c(=O)n1 (stereo not drawn) + Cc1ccccc1N=Nc1ccc(NC(=O)c2ccnn2C)c(C)c1", "90.2%"],
  ["CC(C)CC(NC(=O)C(Cc1ccccc1)NC(=O)c1cnccn1)B(O)O (stereo not drawn) + Cc1ccccc1N=Nc1ccc(NC(=O)c2ccnn2C)c(C)c1", "86.4%"]
]}

Data provenance is PubChem BioAssay AID1919001.
